Target: SERCA2a (Sus scrofa)
Sequence (P11607 1-997 isoform P11607-2): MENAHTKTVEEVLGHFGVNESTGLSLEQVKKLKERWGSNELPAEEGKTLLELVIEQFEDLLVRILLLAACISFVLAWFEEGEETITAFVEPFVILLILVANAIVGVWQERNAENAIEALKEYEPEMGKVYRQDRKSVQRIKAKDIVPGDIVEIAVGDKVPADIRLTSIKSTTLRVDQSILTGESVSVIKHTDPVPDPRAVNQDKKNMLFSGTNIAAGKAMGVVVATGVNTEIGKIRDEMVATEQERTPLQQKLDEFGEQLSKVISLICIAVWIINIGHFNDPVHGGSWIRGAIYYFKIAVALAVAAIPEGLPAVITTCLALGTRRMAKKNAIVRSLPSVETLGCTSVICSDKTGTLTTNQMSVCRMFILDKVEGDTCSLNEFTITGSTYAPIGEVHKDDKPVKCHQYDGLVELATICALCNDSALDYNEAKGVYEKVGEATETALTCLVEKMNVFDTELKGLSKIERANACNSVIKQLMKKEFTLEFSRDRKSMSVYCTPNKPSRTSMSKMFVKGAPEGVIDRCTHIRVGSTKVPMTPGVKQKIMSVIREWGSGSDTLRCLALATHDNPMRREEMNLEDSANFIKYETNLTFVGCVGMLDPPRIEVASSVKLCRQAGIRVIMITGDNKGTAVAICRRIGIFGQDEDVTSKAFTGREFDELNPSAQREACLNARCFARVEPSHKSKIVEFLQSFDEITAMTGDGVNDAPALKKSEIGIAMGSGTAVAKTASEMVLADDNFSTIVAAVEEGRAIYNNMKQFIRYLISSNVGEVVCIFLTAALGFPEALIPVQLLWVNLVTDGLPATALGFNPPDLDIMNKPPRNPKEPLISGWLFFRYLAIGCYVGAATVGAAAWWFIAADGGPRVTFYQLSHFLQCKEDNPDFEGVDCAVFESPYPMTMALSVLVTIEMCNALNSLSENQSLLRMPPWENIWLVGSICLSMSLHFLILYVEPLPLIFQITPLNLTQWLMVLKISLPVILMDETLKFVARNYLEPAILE
ASSAY READOUT: IC50

INSERT INTO assay_data (molecule, experimental_system, reported_result) VALUES
  ('Oc1ccc2ccccc2c1SSc1c(O)ccc2ccccc12 [IPA3]', 'SERCA2a (Sus scrofa)', '8 µM');

----------
Molecular target: human cardiac calcium pump (SERCA2a) (Homo sapiens)
Sequence (P16615 1-997 isoform P16615-2): as the sequence (P11607 1-997 isoform P11607-2) above, with K371R, K403N, P538S, M570L, N576H, E667D, S713A, T865S, V889I, L963V counted along it
Test: 2CS (O/M, OFP/MFP) red-shifted FRET fluorescence lifetime biosensor in living HEK293 cells
Type: cell-based
Details: LOPAC hits, 16-point CRC, Hill fit; apparent EC50 for FPL 64176 (no saturation); read-out: EC50 of lifetime change, 2CS (OFP/MFP)
pEC50: −log10 of the molar value.
ASSAY READOUT: pEC50

INSERT INTO assay_data (compound_string, reported_result) VALUES
  ('c1ccc(C(NCc2cccnc2)(c2ccccc2)c2ccccc2)cc1', 5.14);
